- test: Metabolic stability in 25 % rat serum assessed as half life
- Assay type: ADME, cell-free
Where a SMILES comes first, the peptide text is derived from it. The star is where a group is joined. Palmitoyl = CCCCCCCCCCCCCCCC(=O)*
endpoint: half-life (h)
Please reply with the bare figure in h and do not write the unit itself.

Documented half-life of CCCCCCCCCCCCCCCC(=O)NCCCC[C@H](NC(=O)[C@H](CCCCN)NC(=O)[C@H](CCCCN)NC(=O)[C@@H]1CCCN1C(=O)CNC(=O)[C@H](CC(C)C)NC(=O)[C@H](CC(C)C)NC(=O)[C@H](Cc1ccc(O)cc1)NC(=O)CNC(=O)[C@H](C)NC(=O)[C@H](CO)NC(=O)[C@H](CC(N)=O)NC(=O)[C@H](CC(C)C)NC(=O)[C@@H](NC(=O)[C@@H](N)Cc1c[nH]c2ccccc12)[C@@H](C)O)C(=O)N[C@@H](CCCCN)C(N)=O (H-WTLNSAGYLLGPKKK(Palmitoyl)K-NH2) : 10
